meta.source: patent US20260166012A1

measured.on: JAK1 (Homo sapiens)
Sequence (P23458 850-1154 limits assumed): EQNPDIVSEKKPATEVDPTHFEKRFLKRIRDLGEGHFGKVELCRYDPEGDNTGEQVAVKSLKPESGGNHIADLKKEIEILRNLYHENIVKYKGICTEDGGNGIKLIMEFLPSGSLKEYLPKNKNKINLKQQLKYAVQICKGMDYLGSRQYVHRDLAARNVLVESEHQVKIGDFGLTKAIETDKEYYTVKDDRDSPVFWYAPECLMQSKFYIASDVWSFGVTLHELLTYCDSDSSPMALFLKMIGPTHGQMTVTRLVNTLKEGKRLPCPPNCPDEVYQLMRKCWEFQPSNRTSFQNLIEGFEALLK
readout.type: log10 of IC50 (log10 of the value in nM)
// do not treat as linear: log10 of IC50, unit nM

Solved cases (2 shown):
{"compound": "[2H]C([2H])([2H])C([2H])([2H])c1cc(O)c(F)cc1-c1ccc2c(-c3nc4c([nH]3)CN(C(=O)N3CC[C@H](O)C3)C4)n[nH]c2c1 [Compound 3, methanesulfonate]", "measured.on": "JAK1 (Homo sapiens)", "log10 of IC50": -2.14}
{"compound": "[2H]C([2H])([2H])c1cc(O)c(F)cc1-c1ccc2c(-c3nc4c([nH]3)CN(CC(C)O)C4)n[nH]c2c1 (stereo in doubt)", "measured.on": "JAK1 (Homo sapiens)", "log10 of IC50": -0.37}

// input: 3 compounds below; output: log10 of IC50 for each
1. [2H]C([2H])([2H])c1cc(O)c(F)cc1-c1ccc2c(-c3nc4c([nH]3)CN(C(=O)NC[C@H](C)O)C4)n[nH]c2c1
2. [2H]C([2H])([2H])c1cc(O)c(F)cc1-c1ccc2c(-c3nc4c([nH]3)CN(C)C4)n[nH]c2c1
3. [2H]C([2H])([2H])c1cc(O)c(F)cc1-c1ccc2c(-c3nc4c([nH]3)CN(C(=O)N3CCOCC3)C4)n[nH]c2c1

1: -1.00; 2: 0.26; 3: -1.04

----------
measured.on: JAK3 (Homo sapiens, UniProt P52333)
Sequence (P52333 795-1124 limits assumed): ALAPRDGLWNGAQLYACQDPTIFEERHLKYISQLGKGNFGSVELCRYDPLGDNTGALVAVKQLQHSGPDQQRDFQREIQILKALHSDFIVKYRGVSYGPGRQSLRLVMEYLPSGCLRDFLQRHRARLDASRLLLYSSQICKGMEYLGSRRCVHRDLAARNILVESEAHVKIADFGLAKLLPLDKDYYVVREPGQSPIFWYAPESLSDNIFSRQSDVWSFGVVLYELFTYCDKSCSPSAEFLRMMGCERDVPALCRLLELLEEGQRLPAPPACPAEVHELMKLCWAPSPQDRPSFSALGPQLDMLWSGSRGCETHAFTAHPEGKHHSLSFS
pIC50: −log10 of the molar value.
Please enter true (1) where pIC50 is greater than or equal to 10, and false (0) where it is lower.

{"compound": "[2H]C([2H])([2H])C([2H])([2H])c1cc(O)c(F)cc1-c1ccc2c(-c3nc4c([nH]3)CN(C(=O)N3CC[C@H](O)C3)C4)n[nH]c2c1 [Compound 3, methanesulfonate]", "measured.on": "JAK3 (Homo sapiens, UniProt P52333)", "group.label": "true (1)"}
{"compound": "[2H]C([2H])([2H])c1cc(O)c(F)cc1-c1ccc2c(-c3nc4c([nH]3)CN(C(=O)NC[C@H](C)O)C4)n[nH]c2c1", "measured.on": "JAK3 (Homo sapiens, UniProt P52333)", "group.label": "false (0)"}
{"compound": "[2H]C([2H])([2H])c1cc(O)c(F)cc1-c1ccc2c(-c3nc4c([nH]3)CN(C(=O)C3CC3)C4)n[nH]c2c1", "measured.on": "JAK3 (Homo sapiens, UniProt P52333)", "group.label": "false (0)"}

Now turn to the next compound.
Could you verify whether the entry [2H]C([2H])([2H])c1cc(O)c(F)cc1-c1ccc2c(-c3nc4c([nH]3)CN(CC(C)O)C4)n[nH]c2c1 (stereo in doubt) shows pIC50 of no less than 10?
false (0)

----------
measured.on: JAK2 (Homo sapiens)
Sequence (O60674 826-1132 limits assumed): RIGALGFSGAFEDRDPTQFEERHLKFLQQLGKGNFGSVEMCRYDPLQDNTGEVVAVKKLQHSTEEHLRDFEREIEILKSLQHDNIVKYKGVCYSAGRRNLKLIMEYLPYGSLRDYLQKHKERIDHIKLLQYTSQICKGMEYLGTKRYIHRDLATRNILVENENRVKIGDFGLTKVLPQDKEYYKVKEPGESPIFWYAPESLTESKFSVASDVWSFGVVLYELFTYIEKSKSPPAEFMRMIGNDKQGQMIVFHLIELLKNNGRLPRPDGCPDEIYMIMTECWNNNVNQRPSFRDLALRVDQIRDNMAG
readout.type: pIC50
Answers are plain numbers, as −log10 of the molar value.

In the examples that follow, each entry is paired with its recorded pIC50.
{"compound": "[2H]C([2H])([2H])c1cc(O)c(F)cc1-c1ccc2c(-c3nc4c([nH]3)CN(C(=O)N3CC[C@@H](O)C3)C4)n[nH]c2c1 [Compound 8]", "measured.on": "JAK2 (Homo sapiens)", "readout.type": "pIC50", "observed.result": 11.40}
{"compound": "[2H]C([2H])([2H])C([2H])([2H])c1cc(O)c(F)cc1-c1ccc2c(-c3nc4c([nH]3)CN(C(=O)N3CC[C@@H](O)C3)C4)n[nH]c2c1 [Compound 35]", "measured.on": "JAK2 (Homo sapiens)", "readout.type": "pIC50", "observed.result": 11.06}
{"compound": "[2H]C([2H])([2H])c1cc(O)c(F)cc1-c1ccc2c(-c3nc4c([nH]3)CN(CC(C)O)C4)n[nH]c2c1 (stereo in doubt) [Compound 28]", "measured.on": "JAK2 (Homo sapiens)", "readout.type": "pIC50", "observed.result": 10.30}
{"compound": "[2H]C([2H])([2H])c1cc(O)c(F)cc1-c1ccc2c(-c3nc4c([nH]3)CN(C(=O)NCCCO)C4)n[nH]c2c1 [Compound 7]", "measured.on": "JAK2 (Homo sapiens)", "readout.type": "pIC50", "observed.result": 10.85}
{"compound": "[2H]C([2H])([2H])c1cc(O)c(F)cc1-c1ccc2c(-c3nc4c([nH]3)CN(C(=O)OC)C4)n[nH]c2c1 [Compound 18]", "measured.on": "JAK2 (Homo sapiens)", "readout.type": "pIC50", "observed.result": 9.21}
{"compound": "[2H]C([2H])([2H])c1cc(O)c(F)cc1-c1ccc2c(-c3nc4c([nH]3)CN(C(=O)NC[C@@H](C)O)C4)n[nH]c2c1 [Compound 1]", "measured.on": "JAK2 (Homo sapiens)", "readout.type": "pIC50", "observed.result": 10.89}
{"compound": "[2H]C([2H])([2H])c1cc(O)c(F)cc1-c1ccc2c(-c3nc4c([nH]3)CN(C(=O)NC)C4)n[nH]c2c1 [Compound 13]", "measured.on": "JAK2 (Homo sapiens)", "readout.type": "pIC50", "observed.result": 10.92}
{"compound": "[2H]C([2H])([2H])c1cc(O)c(F)cc1-c1ccc2c(-c3nc4c([nH]3)CN(C(=O)N(C)C)C4)n[nH]c2c1 [Compound 9]", "measured.on": "JAK2 (Homo sapiens)", "readout.type": "pIC50", "observed.result": 11.10}

Consider now this further compound.
Provide measured pIC50 value, entry: [2H]C([2H])([2H])C([2H])([2H])c1cc(O)c(F)cc1-c1ccc2c(-c3nc4c([nH]3)CN(C(=O)N3CC[C@H](O)C3)C4)n[nH]c2c1 [Compound 3, methanesulfonate]
10.82
